src = ChEMBL document CHEMBL1126060

Target: D(2) dopamine receptor (Rattus norvegicus)
Sequence (P61169 whole entry): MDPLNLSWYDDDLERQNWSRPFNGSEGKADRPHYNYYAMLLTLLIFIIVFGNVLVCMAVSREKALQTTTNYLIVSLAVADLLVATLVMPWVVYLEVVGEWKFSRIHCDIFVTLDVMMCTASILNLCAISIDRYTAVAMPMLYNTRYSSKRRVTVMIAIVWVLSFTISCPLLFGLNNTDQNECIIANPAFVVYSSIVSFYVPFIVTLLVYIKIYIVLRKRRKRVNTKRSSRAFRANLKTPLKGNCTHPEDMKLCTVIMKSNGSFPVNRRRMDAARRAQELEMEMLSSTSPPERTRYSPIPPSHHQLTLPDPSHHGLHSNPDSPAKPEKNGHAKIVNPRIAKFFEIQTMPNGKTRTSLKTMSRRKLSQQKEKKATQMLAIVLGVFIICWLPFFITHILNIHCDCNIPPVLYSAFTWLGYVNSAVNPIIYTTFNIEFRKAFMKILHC
Assay: In vitro for the binding affinity against dopamine receptor D2 by using [3H](-)-sulpiride as radioligand in rat striatum.
pIC50: −log10 of the molar value.
This listing pairs compounds with measured pIC50.

- structure: "c1ccc(CN2CCC3(CCc4ccccc43)CC2)cc1"
  pIC50: 6.05
- structure: "c1ccc2c(c1)CCC21CCN(CC2CCCCC2)CC1"
  pIC50: 5.18
- structure: "CCCCN1CCC2(CCc3ccccc32)CC1"
  pIC50: 5.40
- structure: "c1ccc2c(c1)CCCC21CCN(CC2CCCCC2)CC1"
  pIC50: 5.71
- structure: "CCCCN1CCC2(CCCCc3ccccc32)CC1"
  pIC50: 5.60
- structure: "CC(C)=CCN1CCC2(CCc3ccccc32)CC1"
  pIC50: 4.77
- structure: "c1ccc(CN2CCC3(CCCCc4ccccc43)CC2)cc1"
  pIC50: 5.43
- structure: "CCCCCCN1CCC2(CCCc3ccccc32)CC1"
  pIC50: 5.69
- structure: "CCCCCCN1CCC2(CCc3ccccc32)CC1"
  pIC50: 5.26
- structure: "CC(C)=CCN1CCC2(CCCc3ccccc32)CC1"
  pIC50: 5.26
- structure: "COc1ccc(CN2CCC3(CCc4ccccc43)CC2)cc1"
  pIC50: 6.21
- structure: "COc1ccc(CN2CCC3(CCCc4ccccc43)CC2)cc1"
  pIC50: 6.92
- structure: "Cc1ccc(CN2CCC3(CCCc4ccccc43)CC2)cc1"
  pIC50: 6.76
- structure: "CCCCN1CCC2(CCCc3ccccc32)CC1"
  pIC50: 4.96
